experiment: chemical genetic growth profiling, strain panel (AID 1159580);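 further: tested at 20 µM; growth read once vehicle control cultures reached saturation at 30 °C; lower values mean less growth of the strain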; settings: S. cerevisiae deletion strains, growth OD, locus YNL248C, strain rpa49
The campaign covered roughly 5,500 compounds. About 2,000 (36%) were called active. Another 18% or so got no clear call; they are omitted. No stated cut-off is given here; in the data, active means normalized growth mostly below about 0.91 (no sharp cut-off); inconclusive means no clear call, values can overlap the other calls; inactive means mostly above about 0.92. This is one part of the list.
Your reply should match one of these outcome classes. active, inactive

q: Could you kindly confirm the outcome this assay logged for CC(C)=CC1C(C(=O)O)C1(C)C (configuration not stated) ?
a: inactive

q: Please let me know the test result on file for COc1cc(C/C=C/c2ccccc2)c(OC)cc1O .
a: inactive

q: What call does the record list for CC(=O)c1ccc(O)c(CC=C(C)C)c1 ?
a: active

q: Please let me know the test result on file for CNNC .
a: inactive

q: What did this assay record as the result for CC(C)c1ccc2c(c1)CCC1C(C)(C(N)=O)CCCC21C (configuration not stated) ?
a: inactive

q: Assay result, entry CC(C)c1ccc2c(c1)CCC1[C@](C)(CN)CCC[C@]21C (some centres not stated) — outcome?
a: inactive

q: What call does the record list for CC12CCC(=O)C=C1CCC1C2[C@@H](O)CC2(C)C1CC[C@]2(O)C(=O)COP(=O)(O)O (some centres not stated) ?
a: inactive

q: // return assay outcome for NS(=O)(=O)c1cc2c(cc1Cl)NC(CSCc1ccccc1)=NS2(=O)=O
a: inactive

q: Test call, this compound: C=C1C[C@]23C[C@@]1(O)CC[C@H]2[C@@]12C=C[C@H](O)[C@@](C)(C(=O)O1)[C@H]2[C@@H]3C(=O)O
a: inactive

q: Name the outcome recorded for CC(=O)N[C@@H](Cc1c[nH]c2ccccc12)C(N)=O in the assay.
a: inactive

q: Hi, do you know how CC(C)C[C@@H](CN)CC(=O)O came out in this test?
a: inactive

q: What outcome does the record of this test show for Oc1cccc(O)c1 ?
a: inactive

q: What is the recorded call for this compound in the test? CC(=O)c1cc(CC=C(C)C)c(O)c(CC=C(C)C)c1
a: inactive
